Test system: HCT-116 colon
Assay: NCI-60 one-dose screen, 48 h
Settings: 10 µM unless noted
About 83,000 compounds went through this panel and 20% of them were active in at least one assay; those are over-represented in the sample as a whole. Activity calls are given as the source filed them. The calls were made as follows: active = growth percent below 10; inactive = the rest.
// allowed return values: 1.0 = active, 0.0 = inactive

These recorded examples may help you get a feel for the data.
## Task Assay outcome for COc1cc(OC)c(/C=C/c2cc[n+](C)c3ccccc23)c(OC)c1 : what was it?
## Result 0.0

## Task Assay outcome for CC(C)(C)c1nn(-c2ccccc2)c2c1CC1(CN2Cc2ccc3c(c2)OCO3)C(=O)c2ccccc2C1=O : what was it?
## Result 0.0

New cases:
## Task Assay outcome for CN1C2CCC1/C(=C\c1ccc(Cl)cc1)C1=C2[C@@H](c2ccc(Cl)cc2)C(C#N)=C(N)O1 (stereo not given in full) : what was it?
## Result 0.0

## Task Assay outcome for CCOC(=O)Cc1cnn(C)c1NC(=O)c1ccc(Cl)cc1NC(C)=O : what was it?
## Result 0.0

## Task Assay outcome for CS(=O)(=O)c1ccc(-c2cnc3ccc(-c4cccc(S(C)(=O)=O)c4)nn23)cc1 : what was it?
## Result 0.0

## Task Assay outcome for Cc1cc(Nc2nc(N3CCNCC3)nc3ccccc23)n[nH]1 : what was it?
## Result 0.0

## Task Assay outcome for c1ccc(-c2nc(N3CCOCC3)c3c4c(sc3n2)CCCCC4)nc1 : what was it?
## Result 0.0

## Task Assay outcome for CCN(CC)Cc1cc(Nc2c3ccc(Cl)cc3nc3c(C)cccc23)ccc1O : what was it?
## Result 1.0

## Task Assay outcome for Nc1cc(-c2nc3sccn3c2-c2ccnc(NCCCNS(=O)(=O)c3ccc(F)cc3)n2)ccc1F : what was it?
## Result 0.0

## Task Assay outcome for O=C1Nc2ccccc2/C1=C/C(=N/c1nnc(-c2ccc(Cl)cc2)s1)c1ccccc1 : what was it?
## Result 1.0
